Give measured ELISA (absorbance units) (absorbance units) for each item. Keep answers brief.
- assayed system: bovine serum albumin (bovine) (UniProt P02769)
- Sequence (P02769 25-607 limits assumed): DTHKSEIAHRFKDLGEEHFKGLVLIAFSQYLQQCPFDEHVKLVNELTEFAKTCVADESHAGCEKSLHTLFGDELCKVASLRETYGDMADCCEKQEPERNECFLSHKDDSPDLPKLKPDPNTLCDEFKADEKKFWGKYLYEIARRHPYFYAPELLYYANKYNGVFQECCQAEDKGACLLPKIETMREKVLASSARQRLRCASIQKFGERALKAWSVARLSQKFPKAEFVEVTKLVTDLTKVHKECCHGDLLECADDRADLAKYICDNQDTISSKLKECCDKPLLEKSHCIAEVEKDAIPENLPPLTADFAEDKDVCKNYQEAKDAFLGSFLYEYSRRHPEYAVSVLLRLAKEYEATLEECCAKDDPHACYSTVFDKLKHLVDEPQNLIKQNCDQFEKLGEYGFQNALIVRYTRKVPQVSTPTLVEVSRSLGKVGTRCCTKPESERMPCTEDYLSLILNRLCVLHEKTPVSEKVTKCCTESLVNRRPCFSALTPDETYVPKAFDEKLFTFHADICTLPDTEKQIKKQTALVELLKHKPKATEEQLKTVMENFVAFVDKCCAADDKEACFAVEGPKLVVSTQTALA
- experimental protocol: phage ELISA, 10^8 phagemid per well, BSA-only wells
Positions of bridges follow the written chain, without caps; N, C: chain ends. No end group written: not given here.
Give bare numbers.

Known ELISA (absorbance units) (absorbance units) results, listed for orientation:
Measured ELISA (absorbance units) (absorbance units) of CSFRYLWDQDRCS (disulfide 1-12 (inferred)) [phagemid CS1-6p] : 0.254

Measured ELISA (absorbance units) (absorbance units) of CSFFYSLCYCWCS (disulfide (positions not given here); also: disulfide cyclised, pairing of the four Cys not given here) [phagemid CS1-31p] : 0.109

Okay, here is my list. What is ELISA (absorbance units) (absorbance units) for each of these?
1. CSGLYPWDMFRCS (disulfide 1-12 (inferred)) [phagemid CS1-9p]
2. CSGLYPWDYFMCS (disulfide 1-12 (inferred)) [phagemid CS1-29p]
3. CSLFYLWDQDRCS (disulfide 1-12 (inferred)) [phagemid CS1-2p]
4. CSFRYQWDMFRCS (disulfide 1-12 (inferred)) [phagemid CS1-11p]

**A:**
1. 0.216
2. 0.127
3. 0.264
4. 0.268
